# Chemical purity after 4 weeks of storage at 80° C. values compiled below
test: Solid stability test (4 weeks of storage at 80° C., closed system; HPLC); type: physicochemical; details: 80° C. (closed system), 4 weeks, glass bottle; HPLC
measured.quantity: Chemical purity after 4 weeks of storage at 80° C.

C#Cc1c(-c2cnc3ccccc3c2)c2c(N)ncnc2n1C12CCC(NC(=O)c3cnc(C)cn3)(CC1)C2 [Type IV crystal of Compound (1) with citric acid]
93.49%
C#Cc1c(-c2cnc3ccccc3c2)c2c(N)ncnc2n1C12CCC(NC(=O)c3cnc(C)cn3)(CC1)C2 [Type I crystal of Compound (1) with phosphoric acid]
99.50%
C#Cc1c(-c2cnc3ccccc3c2)c2c(N)ncnc2n1C12CCC(NC(=O)c3cnc(C)cn3)(CC1)C2 [Type I crystal of Compound (1) with sorbic acid]
99.72%
C#Cc1c(-c2cnc3ccccc3c2)c2c(N)ncnc2n1C12CCC(NC(=O)c3cnc(C)cn3)(CC1)C2 [Type VIII crystal in free form]
99.43%
C#Cc1c(-c2cnc3ccccc3c2)c2c(N)ncnc2n1C12CCC(NC(=O)c3cnc(C)cn3)(CC1)C2 [Type VII crystal in free form]
99.63%
C#Cc1c(-c2cnc3ccccc3c2)c2c(N)ncnc2n1C12CCC(NC(=O)c3cnc(C)cn3)(CC1)C2 [Type I crystal of Compound (1) with citric acid]
99.03%
C#Cc1c(-c2cnc3ccccc3c2)c2c(N)ncnc2n1C12CCC(NC(=O)c3cnc(C)cn3)(CC1)C2 [Type III crystal of Compound (1) with succinic acid]
99.63%
C#Cc1c(-c2cnc3ccccc3c2)c2c(N)ncnc2n1C12CCC(NC(=O)c3cnc(C)cn3)(CC1)C2 [Type III crystal in free form]
99.60%
